Source: PubChem BioAssay

assayExplanation: liver-stage malaria parasite growth inhibition, primary screen, cell-based, HepG2, luciferase luminescence, HepG2 viability (AID 624349);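 further: 100% = mean of DMSO negative control wells on the same plate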
reportedConditions: P. berghei liver stage in HepG2, luciferase luminescence, concentration not given here; measured here: HepG2 viability without parasites
For each record, write down the corresponding viability.
Give bare numbers, in %.

CN1C(=O)CN=C(c2ccccc2)c2cc([N+](=O)[O-])ccc21
68.8
COc1ccc2[nH]cc(CCN)c2c1
68.9

# evaluate next
Prompt: Name the recorded viability for "O=c1ccc2cc(O[C@@H]3O[C@H](CO)[C@@H](O)[C@H](O)[C@H]3O)c(O)cc2o1" .
Completion: 71.7
